These measurements were taken from patent US5589486A.

In this section, each of the compounds is paired with its reported LD50 at 72 h.
Assay Explanation: Acute toxicity study in mice
Parameters: species or system mice (OF-1, either sex)
Stated Conditions: mouse, in vivo, po; 72 h observation; Litchfield and Wilcoxon; maximal dose 1000 mg/kg; read-out: LD50
Metric Name: LD50 at 72 h

- OC(CN1CC=C(c2ccccc2)CC1)c1ccc(Cc2ccc(Cl)cc2)cc1 (centres unmarked): > 1000 mg/kg
- OC(CCN1CC=C(c2ccc(Cl)cc2)CC1)c1ccc(Cl)cc1Cl (centres unmarked): > 1000 mg/kg

---

Assay Explanation: Acute toxicity study in mice
Set-up: species or system mice (OF-1, either sex)
Stated Conditions: mouse, in vivo, po, maximal dose 1000 mg/kg
Metric Name: LD50 at 72 h (mg/kg)

- OC(CCN1CCC(c2ccccc2)CC1)c1ccc(Cc2ccc(Cl)cc2)cc1 (stereo not shown): 697
